Where do the numbers come from? From patent US20090035322A1.

- System: T1, mutant human CD20 #3 (A170S, P172S) (human, UniProt P11836 1-297)
- T1 construct: Stably expressed on MG87 cells
- T1 chain: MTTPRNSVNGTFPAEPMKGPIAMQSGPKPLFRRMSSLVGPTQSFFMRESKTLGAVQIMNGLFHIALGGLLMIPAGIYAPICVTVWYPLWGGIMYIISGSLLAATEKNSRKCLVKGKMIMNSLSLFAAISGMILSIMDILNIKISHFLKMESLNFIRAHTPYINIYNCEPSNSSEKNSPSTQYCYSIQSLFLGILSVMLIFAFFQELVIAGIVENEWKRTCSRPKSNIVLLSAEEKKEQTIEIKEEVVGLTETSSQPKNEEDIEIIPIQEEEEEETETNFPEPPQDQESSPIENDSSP
- Protocol summary: FACS, mutant-hCD20 MG87 cells; 100%=best antibody
Experimental readout: Percent of Binding to Mutant Human CD20 (%)
Answers are plain numbers, in %.

{"Binder": "9H4-12 (antibody, V domains shown, Fully human IgG, constant region not specified; also called 9H4-12N) VH: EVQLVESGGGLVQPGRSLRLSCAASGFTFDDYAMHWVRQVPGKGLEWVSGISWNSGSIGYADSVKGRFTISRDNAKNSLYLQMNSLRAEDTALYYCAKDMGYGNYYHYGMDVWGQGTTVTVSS VL: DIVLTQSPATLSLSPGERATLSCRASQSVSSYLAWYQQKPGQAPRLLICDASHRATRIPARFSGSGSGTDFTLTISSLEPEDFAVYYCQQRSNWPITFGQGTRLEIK", "Percent of Binding to Mutant Human CD20, %": 0}

Parameters: items (list). Returns: Percent of Binding to Mutant Human CD20 for each item.
1. 9C11-14 (antibody, V domains shown, Fully human IgG, constant region not specified; also called 9C11-14N) VH: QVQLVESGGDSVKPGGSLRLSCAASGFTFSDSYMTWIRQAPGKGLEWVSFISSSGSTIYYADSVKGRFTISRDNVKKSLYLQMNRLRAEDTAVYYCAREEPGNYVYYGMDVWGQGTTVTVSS VL: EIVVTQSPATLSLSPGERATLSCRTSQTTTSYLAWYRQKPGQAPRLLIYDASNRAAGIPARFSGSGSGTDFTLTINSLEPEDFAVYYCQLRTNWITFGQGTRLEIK
2. 10F2-13 (antibody, V domains shown, Fully human IgG, constant region not specified; also called 10F2-13N; ab 10F2-13) VH: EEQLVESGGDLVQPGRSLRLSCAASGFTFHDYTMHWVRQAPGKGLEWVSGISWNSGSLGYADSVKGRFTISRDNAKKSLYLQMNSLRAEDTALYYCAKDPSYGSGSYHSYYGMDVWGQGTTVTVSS VL: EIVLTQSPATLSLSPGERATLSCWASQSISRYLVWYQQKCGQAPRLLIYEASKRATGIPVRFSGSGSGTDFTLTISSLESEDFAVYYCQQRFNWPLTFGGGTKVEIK

Output:
1: 0; 2: 55
